- assay.procedure: Biochemical Assay: A variety of Ras proteins may be inhibited by compounds of the present invention (e.g., K-Ras, N-Ras, H-Ras, and mutants thereof at positions 12, 13 and 61, such as G12C, G12D, G12V, G12S, G13C, G13D, and Q61L, and others described herein). The purpose of this biochemical assay is to measure the ability of test compounds to covalently label nucleotide-loaded K-Ras isoforms. […] The sample is incubated at 25? C. for a time period of up to 24 hours prior to quenching by the addition of 10 uL of 5% Formic Acid. Quenched samples are centrifuged at 15000 rpm for 15 minutes in a benchtop centrifuge before injecting a 10 uL aliquot onto a reverse phase C4 column and eluting into the mass spectrometer with an increasing acetonitrile gradient in the mobile phase. Analysis of raw data may be carried out using Waters MassLynx MS software, with % bound calculated from the deconvoluted protein peaks for labeled and unlabeled K-Ras.

- molecule: "C=CC(=O)N1CC(OCC(C(=O)N[C@H]2Cc3cccc(c3)-c3ccc4c(c3)c(c(-c3cccnc3C(C)OC)n4CC(F)(F)F)CC(C)(C)COC(=O)[C@@H]3CCCN(N3)C2=O)C(C)C)C1 (stereo partly drawn)"
  IC50: "> 10 µM"
